Biological target: T1, 4H327-AA
T1 chain: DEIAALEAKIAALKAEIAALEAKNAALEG
Assay: two-hybrid library CCmax;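 further: natural log of median RNA to DNA barcode read ratio; higher means stronger binding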
Conditions: mean of both orientations
metric: interaction score

Consider the following illustrative entries.
{"columns": ["binder", "interaction score"],
 "data": [
  ["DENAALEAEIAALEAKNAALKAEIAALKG [4H1082-AA]", -0.938],
  ["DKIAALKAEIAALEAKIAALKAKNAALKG [4H2608-AA]", 1.83],
  ["DKIAALKAKIAALKAKNAALEAKNAALEG [4H2935-AA]", -0.77],
  ["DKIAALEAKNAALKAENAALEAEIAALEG [4H2513-AA]", -1.74],
  ["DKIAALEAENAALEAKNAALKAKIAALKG [4H2238-AA]", -0.966]
]}

(A) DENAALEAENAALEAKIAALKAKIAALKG [4H1198-AA]
(B) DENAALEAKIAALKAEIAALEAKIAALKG [4H1350-AA]
(C) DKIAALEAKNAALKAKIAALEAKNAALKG [4H2536-AA]
(D) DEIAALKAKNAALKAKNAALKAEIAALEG [4H1017-AA]
(E) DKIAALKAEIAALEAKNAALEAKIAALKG [4H2614-AA]
Q) Please order the records by their reported interaction score, lowest number first. Give your ranking as a list of the labels in the requested order.
A) D, C, A, E, B

# credit: paper PMC10397247
